Species: Homo sapiens
test-name: Selectivity ratio of IC50 of human recombinant CB2 receptor to IC50 of human recombinant CB1 receptor
property-measured: Ratio IC50

In [3]: df
Out[3]:
                           substance_smiles  property_measured  quantitative_readout
0  C[C@H](NC(=O)C(C)(C)Nc1ccon1)[C@@H](Cc1ccc(Cl)cc1)c1cccc(C#N)c1         Ratio IC50                    67
1  C[C@H](NC(=O)C(C)(C)Nc1ccnn1C)[C@@H](Cc1ccc(Cl)cc1)c1cccc(C#N)c1         Ratio IC50                    65

[P] C[C@H](NC(C)(C)C(=O)Nc1ccc(C(F)(F)F)cn1)[C@@H](Cc1ccc(Cl)cc1)c1cccc(C#N)c1
[Q] C[C@H](NC(=O)C(C)(C)Nc1ncc(C(F)(F)F)cc1Cl)[C@@H](Cc1ccc(Cl)cc1)c1cccc(C#N)c1
Of the two listed items, P and Q , which carries the larger Ratio IC50 figure? Identify your pick by its label.
Q
(Q: 23, P: 13)

[I] C[C@H](NC(=O)C(C)(C)Nc1cc(-c2ccccc2)on1)[C@@H](Cc1ccc(Cl)cc1)c1cccc(C#N)c1
[II] C[C@H](NC(=O)C(C)(C)Nc1ncc(Cl)cc1Cl)[C@@H](Cc1ccc(Cl)cc1)c1cccc(C#N)c1
Of I and II , which carries the smaller reported Ratio IC50 figure? Your answer should be the label of the entry you select.
I
(I: 1.3, II: 57)

[P] Cc1cc(NC(C)(C)C(=O)N[C@@H](C)[C@@H](Cc2ccc(Cl)cc2)c2cccc(C#N)c2)no1
[Q] C[C@H](NC(=O)C(C)(C)Nc1cc2ccccc2cn1)[C@@H](Cc1ccc(Cl)cc1)c1cccc(C#N)c1
Please choose the item with the lower Ratio IC50 value from this pair: P and Q Returns: label corresponding to the selected item.
Q

----------
system: Cannabinoid receptor 2 (Homo sapiens)
test-name: Displacement of [3H]CP-55940 from recombinant human CB2 receptor expressed in CHO cell
pIC50: −log10 of the molar value.
property-measured: pIC50

>>> df
                           substance_smiles                                 system  property_measured  quantitative_readout
0  Cc1cc(NC(C)(C)C(=O)N[C@@H](C)[C@@H](Cc2ccc(Cl)cc2)c2cccc(C#N)c2)[nH]n1  Cannabinoid receptor 2 (Homo sapiens)              pIC50                  5.21

[P] C[C@H](NC(=O)C(C)(C)Nc1cc2ccccc2cn1)[C@@H](Cc1ccc(Cl)cc1)c1cccc(C#N)c1
[Q] C[C@H](NC(=O)C(C)(C)Nc1ccnn1C)[C@@H](Cc1ccc(Cl)cc1)c1cccc(C#N)c1
Which shows the larger pIC50 value: P or Q ? Choose, then provide that item's label.
P
(P: 6.93, Q: 4.88)

----------
system: Cannabinoid receptor 2 (Homo sapiens, UniProt P34972)
Sequence (P34972 whole entry): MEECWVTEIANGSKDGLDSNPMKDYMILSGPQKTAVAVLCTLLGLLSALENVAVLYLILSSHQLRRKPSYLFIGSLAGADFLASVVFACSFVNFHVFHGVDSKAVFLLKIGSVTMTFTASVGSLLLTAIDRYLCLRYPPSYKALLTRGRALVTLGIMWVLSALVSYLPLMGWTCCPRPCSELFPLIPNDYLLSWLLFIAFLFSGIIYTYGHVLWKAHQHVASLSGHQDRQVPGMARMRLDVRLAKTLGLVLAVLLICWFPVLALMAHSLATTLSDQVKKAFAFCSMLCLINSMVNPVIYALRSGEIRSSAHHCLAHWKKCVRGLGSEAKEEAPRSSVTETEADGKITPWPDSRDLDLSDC
test-name: Displacement of [3H]CP-55940 from recombinant human CB2 receptor expressed in CHO cell
pIC50: −log10 of the molar value.
property-measured: pIC50

>>> print(df.to_string())
                           substance_smiles  property_measured  quantitative_readout
0  Cc1ccnc(NC(C)(C)C(=O)N[C@@H](C)[C@@H](Cc2ccc(Cl)cc2)c2cccc(C#N)c2)c1              pIC50                  6.26
1  C[C@H](NC(=O)C(C)(C)Nc1ccon1)[C@@H](Cc1ccc(Cl)cc1)c1cccc(C#N)c1              pIC50                  5.49
2  Cc1cc(NC(C)(C)C(=O)N[C@@H](C)[C@@H](Cc2ccc(Cl)cc2)c2cccc(C#N)c2)no1              pIC50                  5.29
3  C[C@H](NC(=O)C(C)(C)Nc1cc(C(C)(C)C)on1)[C@@H](Cc1ccc(Cl)cc1)c1cccc(C#N)c1              pIC50                  6.60
4  C[C@H](NC(C)(C)C(=O)Nc1cc(-c2ccccc2)on1)[C@@H](Cc1ccc(Cl)cc1)c1cccc(C#N)c1              pIC50                  5.64
5  C[C@H](NC(=O)C(C)(C)Nc1ncc(C(F)(F)F)cc1Cl)[C@@H](Cc1ccc(Cl)cc1)c1cccc(C#N)c1              pIC50                  6.38

[A] C[C@H](NC(=O)C(C)(C)Nc1cc(-c2ccccc2)on1)[C@@H](Cc1ccc(Cl)cc1)c1cccc(C#N)c1
[B] C[C@H](NC(=O)C(C)(C)Nc1nc2ccccc2n1C)[C@@H](Cc1ccc(Cl)cc1)c1cccc(C#N)c1
# compare pIC50 for A vs B ; return the one with the smaller value Mark your answer with the label of the selected entry.
B
(B: 5.85, A: 6.63)

----------
system: UniProt P21554
test-name: Displacement of [3H]CP-55940 from recombinant human CB1 receptor expressed in CHO cells
property-measured: IC50 (nM)

In [3]: df
Out[3]:
                           substance_smiles          system  quantitative_readout
0  C[C@H](NC(C)(C)C(=O)Nc1cc(-c2ccccc2)on1)[C@@H](Cc1ccc(Cl)cc1)c1cccc(C#N)c1  UniProt P21554                   136
1  C[C@H](NC(C)(C)C(=O)Nc1ccc(C(F)(F)F)cn1)[C@@H](Cc1ccc(Cl)cc1)c1cccc(C#N)c1  UniProt P21554                   132

[a] C[C@H](NC(=O)C(C)(C)Nc1ccnn1C)[C@@H](Cc1ccc(Cl)cc1)c1cccc(C#N)c1
[b] Cc1cc(NC(C)(C)C(=O)N[C@@H](C)[C@@H](Cc2ccc(Cl)cc2)c2cccc(C#N)c2)no1
Which item exceeds the other in IC50, a or b ? To answer, give the label that identifies your chosen option.
a

----------
system: UniProt:P21554
test-name: Displacement of [3H]CP-55940 from recombinant human CB1 receptor expressed in CHO cells
property-measured: IC50 (nM)

In [3]: df
Out[3]:
                           substance_smiles  measurement_units  quantitative_readout
0  C[C@H](NC(=O)C(C)(C)Nc1ccccn1)[C@@H](Cc1ccc(Cl)cc1)c1cccc(C#N)c1                 nM                    49
1  C[C@H](NC(=O)C(C)(C)Nc1cc(-c2ccccc2)on1)[C@@H](Cc1ccc(Cl)cc1)c1cccc(C#N)c1                 nM                   186
2  C[C@H](NC(=O)C(C)(C)Nc1cc(C(C)(C)C)on1)[C@@H](Cc1ccc(Cl)cc1)c1cccc(C#N)c1                 nM                   8.6
3  C[C@H](NC(=O)C(C)(C)Nc1ncc(Cl)cc1Cl)[C@@H](Cc1ccc(Cl)cc1)c1cccc(C#N)c1                 nM                  12.2

[I] Cc1ccnc(NC(C)(C)C(=O)N[C@@H](C)[C@@H](Cc2ccc(Cl)cc2)c2cccc(C#N)c2)c1
[II] Cc1cc(NC(C)(C)C(=O)N[C@@H](C)[C@@H](Cc2ccc(Cl)cc2)c2cccc(C#N)c2)[nH]n1
# returns the entry with the larger IC50; inputs I and II Refer to your chosen item by its label in the answer.
II
(II: 301 nM, I: 37.7 nM)

----------
system: Cannabinoid receptor 1 (Homo sapiens, UniProt P21554)
Sequence (P21554 whole entry): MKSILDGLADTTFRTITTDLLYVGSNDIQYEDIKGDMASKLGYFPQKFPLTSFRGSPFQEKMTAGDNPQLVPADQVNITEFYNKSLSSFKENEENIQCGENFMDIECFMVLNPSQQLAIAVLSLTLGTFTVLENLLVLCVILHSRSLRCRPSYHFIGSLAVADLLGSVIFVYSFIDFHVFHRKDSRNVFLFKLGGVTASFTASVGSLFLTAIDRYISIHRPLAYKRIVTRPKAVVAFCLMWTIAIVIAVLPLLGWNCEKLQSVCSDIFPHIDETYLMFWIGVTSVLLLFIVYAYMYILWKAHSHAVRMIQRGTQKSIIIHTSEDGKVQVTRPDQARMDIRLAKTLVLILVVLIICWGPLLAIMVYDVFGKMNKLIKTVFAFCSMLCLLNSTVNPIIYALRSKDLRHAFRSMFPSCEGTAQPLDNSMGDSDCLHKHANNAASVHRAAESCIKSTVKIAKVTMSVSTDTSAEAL
test-name: Displacement of [3H]CP-55940 from recombinant human CB1 receptor expressed in CHO cells
pIC50: −log10 of the molar value.
property-measured: pIC50

>>> df
                           substance_smiles  property_measured  quantitative_readout
0  C[C@H](NC(=O)C(C)(C)Nc1cc2ccccc2cn1)[C@@H](Cc1ccc(Cl)cc1)c1cccc(C#N)c1              pIC50                  8.00
1  Cc1cc(NC(C)(C)C(=O)N[C@@H](C)[C@@H](Cc2ccc(Cl)cc2)c2cccc(C#N)c2)on1              pIC50                  7.34

[1] C[C@H](NC(=O)C(C)(C)Nc1nc2ccccc2n1C)[C@@H](Cc1ccc(Cl)cc1)c1cccc(C#N)c1
[2] C[C@H](NC(=O)C(C)(C)Nc1ncc(C(F)(F)F)cc1Cl)[C@@H](Cc1ccc(Cl)cc1)c1cccc(C#N)c1
Between these two entries, 1 and 2 , state which has the higher pIC50. Identify your selection by its label.
2
